B1: CPEB3 Ribozyme (parent)
chain: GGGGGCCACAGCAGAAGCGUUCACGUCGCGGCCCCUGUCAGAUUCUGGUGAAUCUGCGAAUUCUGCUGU

# Variants of: B1
# assay details: self-cleavage, relative activity (ratio to wild type); higher = more cleavage; co-transcriptional
Please enter Met where self-cleavage is greater than or equal to 0.5, and Not met where it is lower.

Here are 3 variants together with their reported answers.
mutant designation | answer label
C45A U61C | Met
G30A U62G | Not met
C34G U55A | Not met

Please indicate if the recorded self-cleavage for G28U G48U meets or exceeds 0.5.
Not met

Textbook exercise: given the entry G31U A51U , state whether its self-cleavage is greater than or equal to 0.5.
Met

Does the reported self-cleavage for G11C G25U fall at or above the 0.5 mark?
Not met

Origin of the recorded values: the RNAGym collection of RNA variant scans (doi:10.7554/elife.80360)
